Cited source: patent US20230407243A1

Each entry below carries its recorded MIC.
- Tested on: EKO-35 araC::mdtBC
test.readout: MIC

molecule	meas.value
CCCCCCCCCCCCOS(=O)(=O)[O-].[Na+] [SDS, sodium dodecyl sulphate]	62.5 µg/mL
Cc1onc(-c2ccccc2)c1C(=O)N[C@@H]1C(=O)N2[C@@H]1SC(C)(C)[C@@H]2C(=O)O [oxacillin]	0.625 µg/mL
CN[C@H](CC(C)C)C(=O)N[C@H]1C(=O)N[C@@H](CC(N)=O)C(=O)N[C@H]2C(=O)N[C@H]3C(=O)N[C@H](C(=O)N[C@H](C(=O)O)c4cc(O)cc(O)c4-c4cc3ccc4O)[C@H](O)c3ccc(c(Cl)c3)Oc3cc2cc(c3O[C@@H]2O[C@H](CO)[C@@H](O)[C@H](O)[C@H]2O[C@H]2C[C@](C)(N)[C@H](O)[C@H](C)O2)Oc2ccc(cc2Cl)[C@H]1O [vancomycin]	200 µg/mL
COc1cccc2c1C(=O)c1c(O)c3c(c(O)c1C2=O)C[C@@](O)(C(C)=O)C[C@@H]3O[C@H]1C[C@H](N)[C@H](O)[C@H](C)O1 [daunorubicin]	1.56 µg/mL
CO[C@H]1/C=C/O[C@@]2(C)Oc3c(C)c(O)c4c(O)c(c(/C=N/N5CCN(C)CC5)c(O)c4c3C2=O)NC(=O)/C(C)=C\C=C\[C@H](C)[C@H](O)[C@@H](C)[C@@H](O)[C@@H](C)[C@H](OC(C)=O)[C@@H]1C [rifampicin]	6.25 µg/mL
[H]/N=C(\N/C(=N/[H])NCCCCCCNC(=N)NC(=N)Nc1ccc(Cl)cc1)Nc1ccc(Cl)cc1 [Chlorhexidine]	0.391 µg/mL
CC(=O)NC[C@H]1CN(c2ccc(N3CCOCC3)c(F)c2)C(=O)O1 [linezolid]	3.91 µg/mL
O=C(N[C@H](CO)[C@H](O)c1ccc([N+](=O)[O-])cc1)C(Cl)Cl [chloramphenicol]	0.781 µg/mL
COc1ccc(C[C@H](N)C(=O)N[C@H]2[C@@H](O)[C@H](n3cnc4c(N(C)C)ncnc43)O[C@@H]2CO)cc1 [puromycin]	1.56 µg/mL
CN(C)[C@@H]1C(O)=C(C(N)=O)C(=O)[C@@]2(O)C(O)=C3C(=O)c4c(O)cccc4[C@@](C)(O)[C@H]3C[C@@H]12 [tetracycline]	0.195 µg/mL
CN[C@@H]1[C@H](O)[C@H](NC)[C@H]2O[C@@]3(O)C(=O)C[C@@H](C)O[C@H]3O[C@@H]2[C@H]1O [Spectinomycin]	25 µg/mL
CC1(C)S[C@@H]2[C@H](NC(=O)[C@H](N)c3ccccc3)C(=O)N2[C@H]1C(=O)O [ampicillin]	25 µg/mL
